protocol-notes: Solubility of the active ingredient in water at room temperature
Assay type: physicochemical
measurement-label: solubility (µg/mL)
Field format: number, assumed µg/mL, no unit text.

The recorded solubility for entry COc1ccc2[nH]cc(CCNC(C)=O)c2c1 equals 2000
